The measured values listed here are drawn from patent EP0230023B1.

- Test system: granulation tissue
- ASSAY REMARKS: Subcutaneous Ivalon sponge implantation, histological analysis of granulation tissue formation
- Type: in vivo, Sprague-Dawley rats
- PARTICULARS: score on the 0-4 scale; tested in a similar manner to collagen/sucrose octasulfate; potassium salts
Measured Sponge, listed per entry for reference.
Form field (numeric): enter value without unit.

As a guide, the following entries are already answered.
>>> experimental_result("O=C[C@H](O)[C@@H](O)[C@H](O)[C@H](O)COS(=O)(=O)[O-].[K+] [Glucose-6-Sulfate, potassium D-glucose-6-sulfate, reference compound]")
1
>>> experimental_result("O=C[C@H](OS(=O)(=O)[O-])[C@@H](OS(=O)(=O)[O-])[C@H](OS(=O)(=O)[O-])[C@@H](COS(=O)(=O)[O-])OS(=O)(=O)[O-].[K+].[K+].[K+].[K+].[K+] [Glucose Pentasulfate, potassium glucose pentasulfate]")
2.5
>>> experimental_result("O=S(=O)([O-])OC[C@H]1O[C@H](O[C@H]2O[C@H](COS(=O)(=O)[O-])[C@@H](OS(=O)(=O)[O-])[C@H](OS(=O)(=O)[O-])[C@H]2OS(=O)(=O)[O-])[C@H](OS(=O)(=O)[O-])[C@@H](OS(=O)(=O)[O-])[C@@H]1OS(=O)(=O)[O-].[K+].[K+].[K+].[K+].[K+].[K+].[K+].[K+] [Trehalose Octasulfate, potassium trehalose octasulfate]")
3.0
>>> experimental_result("O=S(=O)([O-])OC[C@H]1O[C@@](COS(=O)(=O)[O-])(O[C@H]2O[C@H](COS(=O)(=O)[O-])[C@@H](OS(=O)(=O)[O-])[C@H](OS(=O)(=O)[O-])[C@H]2OS(=O)(=O)[O-])[C@@H](OS(=O)(=O)[O-])[C@@H]1OS(=O)(=O)[O-].[K+].[K+].[K+].[K+].[K+].[K+].[K+].[K+] [Sucrose Octasulfate, potassium sucrose octasulfate]")
4
>>> experimental_result("O=C[C@@H](OS(=O)(=O)[O-])[C@@H](OS(=O)(=O)[O-])[C@H](OS(=O)(=O)[O-])[C@@H](COS(=O)(=O)[O-])OS(=O)(=O)[O-].[K+].[K+].[K+].[K+].[K+] [Mannose Pentasulfate, potassium mannose pentasulfate]")
3.0

For O=S(=O)(O)OC[C@H]1O[C@@H](OS(=O)(=O)O)[C@H](OS(=O)(=O)O)[C@@H](OS(=O)(=O)O)[C@@H]1O[C@H]1O[C@H](COS(=O)(=O)O)[C@@H](OS(=O)(=O)O)[C@H](OS(=O)(=O)O)[C@H]1OS(=O)(=O)O [Maltose Octasulfate, potassium maltose octasulfate] , write its Sponge.
3.0

For O=S(=O)([O-])OC[C@H]1O[C@@H](O[C@H]2[C@H](OS(=O)(=O)[O-])[C@@H](OS(=O)(=O)[O-])[C@H](OS(=O)(=O)[O-])O[C@@H]2COS(=O)(=O)[O-])[C@H](OS(=O)(=O)[O-])[C@@H](OS(=O)(=O)[O-])[C@H]1OS(=O)(=O)[O-].[K+].[K+].[K+].[K+].[K+].[K+].[K+].[K+] [Beta-Lactose Octasulfate, potassium β -lactose octasulfate] , write its Sponge.
3.0

* * *

- Tested on: rabbit corneas
- ASSAY REMARKS: Rabbit cornea assay for angiogenesis
- Assay type: in vivo
- PARTICULARS: grade on scale 0-4+ in rabbit cornea; potassium salts
Measured Angiogenesis, listed per entry for reference.
Form field (numeric): enter value without unit.

As a guide, the following entries are already answered.
>>> experimental_result("O=S(=O)(O)OC[C@H]1O[C@@H](OS(=O)(=O)O)[C@H](OS(=O)(=O)O)[C@@H](OS(=O)(=O)O)[C@@H]1O[C@H]1O[C@H](COS(=O)(=O)O)[C@@H](OS(=O)(=O)O)[C@H](OS(=O)(=O)O)[C@H]1OS(=O)(=O)O [Maltose Octasulfate, potassium maltose octasulfate]")
3.0
>>> experimental_result("O=S(=O)([O-])OC[C@H]1O[C@H](O[C@H]2O[C@H](COS(=O)(=O)[O-])[C@@H](OS(=O)(=O)[O-])[C@H](OS(=O)(=O)[O-])[C@H]2OS(=O)(=O)[O-])[C@H](OS(=O)(=O)[O-])[C@@H](OS(=O)(=O)[O-])[C@@H]1OS(=O)(=O)[O-].[K+].[K+].[K+].[K+].[K+].[K+].[K+].[K+] [Trehalose Octasulfate, potassium trehalose octasulfate]")
3.0

Note: attention shifts to another entry.
For O=S(=O)([O-])OC[C@H]1O[C@@H](O[C@H]2[C@H](OS(=O)(=O)[O-])[C@@H](OS(=O)(=O)[O-])[C@H](OS(=O)(=O)[O-])O[C@@H]2COS(=O)(=O)[O-])[C@H](OS(=O)(=O)[O-])[C@@H](OS(=O)(=O)[O-])[C@H]1OS(=O)(=O)[O-].[K+].[K+].[K+].[K+].[K+].[K+].[K+].[K+] [Beta-Lactose Octasulfate, potassium β -lactose octasulfate] , write its Angiogenesis.
3.0
